Source of measurements: patent US11192893B2

Tested on: Hedgehog pathway activity
Test: Shh-Light luciferase reporter assay of Hedgehog pathway activity (Shh-Light2 cells, SAG-stimulated)
Type: cell-based
Conditions: Table 2, SAG 500 nM, 28-32 hr treatment, read-out: Shh-light IC50
pIC50: −log10 of the molar value.
reported-endpoint: pIC50

# example entries with known answers
| molecule | reported-endpoint | numeric-result |
| --- | --- | --- |
| N#Cc1c(C2(c3ccc(Cl)cc3)CC2)nn2c(=O)c3cc(C4CC4)ccc3[nH]c12 [Example 14] | pIC50 | 6.33 |
| N#Cc1c(C2(c3ccc(Cl)cc3)CC2)nn2c(=O)c3cc(Cl)ccc3[nH]c12 [Example 18] | pIC50 | 6.12 |

a: N#Cc1c(N2CCC(c3ccc(Cl)cc3)CC2)nn2c(=O)c3cc(Cl)ccc3[nH]c12 [Example 20]
b: COc1cccc2c(=O)n3nc(-c4ccc(Cl)cc4Cl)c(C#N)c3[nH]c12 [Example 36]
c: N#Cc1c(C2(c3ccc(Cl)cc3)CC2)nn2c(=O)c3cc(C(F)(F)F)ccc3[nH]c12 [Example 11]
d: NC(=O)c1c(-c2ccc(Cl)cc2Cl)nn2c(=O)c3ccc(Cl)cc3[nH]c12 [Example 34]
hey, can you rank those molecules up there by pIC50? biggest number first please Answer format: the labels, in the requested order. a, c, d, b
